- Tested on: SK-OV-3
- METHOD: NCI tumour cell line growth inhibition, 48 h
Active and inactive are the calls of the source. No stated cut-off is given here; in the data, active = GI50 up to about 1.1 µM and inactive = higher.
So I've got a bunch of compounds here, and I need their GI50 values.

I have 2 compounds here; please give me GI50 for each one.
1. O=C1C(Cl)=C(N(C(=O)c2ccccc2)C(=O)c2ccccc2)C(=O)c2ccccc21
2. NN1C(=O)C(CCO)S/C1=N/N=C1/SC(CCO)C(=O)N1N (stereo not given)

["40.6 µM (inactive)", "> 100 µM (inactive)"]

* * *

- System: MDA-N
- METHOD: NCI tumour cell line growth inhibition, 48 h
Activity calls are given as the source filed them. Cut-off read from the data, not from the text of the source: active = GI50 up to about 1.1 µM and inactive = higher.
ENDPOINT: GI50

// known answers, use as guide
{"COMPOUND": "O=C(NCc1cccnc1)C(=O)NCc1cccnc1", "ASSAYED SYSTEM": "MDA-N", "ENDPOINT": "GI50", "MEAS VALUE": "> 100 µM (inactive)"}
{"COMPOUND": "COc1ccc(N2C(=O)C3c4[nH]c5ccc(OCc6ccccc6)cc5c4C4CCC(c5ccccc5)CC4C3C2=O)cc1 (centres undefined)", "ASSAYED SYSTEM": "MDA-N", "ENDPOINT": "GI50", "MEAS VALUE": "22.6 µM (inactive)"}
{"COMPOUND": "CCC1C(c2cccc(OC)c2O)c2cc3c(cc2OC1N1CCCC1)OCO3 (centres undefined)", "ASSAYED SYSTEM": "MDA-N", "ENDPOINT": "GI50", "MEAS VALUE": "3.24 µM (inactive)"}

I have 3 compounds here; please give me GI50 for each one.
1. CC(=O)NNC1=NN(C(C)=O)C2(S1)C(=O)Nc1ccc(C)cc12 (centres undefined)
2. S=C1/C(=N/c2ccccc2)N(c2ccccc2)/C(=N\c2cccc[n+]2Cc2ccccc2)N1c1ccccc1
3. O=C1c2ccccc2C(=O)c2c1ccc1c2OCO1

1. > 100 µM (inactive)
2. 11.5 µM (inactive)
3. > 100 µM (inactive)

I have 5 compounds here; please give me GI50 for each one.
1. CC(=O)NCC1OC2COC(c3ccccc3)OC2C2N=C(c3ccccc3)OC12 (centres undefined)
2. CC1(C)C(N2CCOCC2)CS1(=O)=O (centres undefined)
3. O=P1(Oc2ccccc2)NCc2ncccc2O1 (centres undefined)
4. O=C1c2cc3ccccc3cc2C2(c3ccc(Cl)cc3)NCCN12 (centres undefined)
5. Cn1c(-c2cccs2)cc(-c2cccs2)c1-c1ccco1

["39.1 µM (inactive)", "> 10 µM (inactive)", "> 100 µM (inactive)", "28.2 µM (inactive)", "39.5 µM (inactive)"]

I have 2 compounds here; please give me GI50 for each one.
1. Nc1nc(Cl)cc(NCC2(CO)CC(OCc3ccccc3)C2)n1 (centres undefined)
2. CCNc1nc(N)c(C(=O)c2cccs2)s1

1. > 100 µM (inactive)
2. 25.6 µM (inactive)

I have 5 compounds here; please give me GI50 for each one.
1. CC1C(c2ccc(F)cc2)c2cc3c(cc2OC1N1CCCC1)OCO3 (centres undefined)
2. O=C(O)CSc1nnc2c3ccccc3c3ccccc3c2n1
3. O=C1C(=O)N(c2cccc(C(F)(F)F)c2)C(=O)C(=O)C1c1nc2ccccc2s1
4. N#Cc1c(O)c2ccccc2[nH]c1=O
5. Nc1ccc2nc(N)n[n+]([O-])c2c1

66.4 µM (inactive)
73.8 µM (inactive)
> 100 µM (inactive)
> 100 µM (inactive)
> 100 µM (inactive)

meta.source: ChEMBL document CHEMBL1201862
